system_tested: T1, human NPRA (human, UniProt P16066 33-1061)
T1 sequence (looked up): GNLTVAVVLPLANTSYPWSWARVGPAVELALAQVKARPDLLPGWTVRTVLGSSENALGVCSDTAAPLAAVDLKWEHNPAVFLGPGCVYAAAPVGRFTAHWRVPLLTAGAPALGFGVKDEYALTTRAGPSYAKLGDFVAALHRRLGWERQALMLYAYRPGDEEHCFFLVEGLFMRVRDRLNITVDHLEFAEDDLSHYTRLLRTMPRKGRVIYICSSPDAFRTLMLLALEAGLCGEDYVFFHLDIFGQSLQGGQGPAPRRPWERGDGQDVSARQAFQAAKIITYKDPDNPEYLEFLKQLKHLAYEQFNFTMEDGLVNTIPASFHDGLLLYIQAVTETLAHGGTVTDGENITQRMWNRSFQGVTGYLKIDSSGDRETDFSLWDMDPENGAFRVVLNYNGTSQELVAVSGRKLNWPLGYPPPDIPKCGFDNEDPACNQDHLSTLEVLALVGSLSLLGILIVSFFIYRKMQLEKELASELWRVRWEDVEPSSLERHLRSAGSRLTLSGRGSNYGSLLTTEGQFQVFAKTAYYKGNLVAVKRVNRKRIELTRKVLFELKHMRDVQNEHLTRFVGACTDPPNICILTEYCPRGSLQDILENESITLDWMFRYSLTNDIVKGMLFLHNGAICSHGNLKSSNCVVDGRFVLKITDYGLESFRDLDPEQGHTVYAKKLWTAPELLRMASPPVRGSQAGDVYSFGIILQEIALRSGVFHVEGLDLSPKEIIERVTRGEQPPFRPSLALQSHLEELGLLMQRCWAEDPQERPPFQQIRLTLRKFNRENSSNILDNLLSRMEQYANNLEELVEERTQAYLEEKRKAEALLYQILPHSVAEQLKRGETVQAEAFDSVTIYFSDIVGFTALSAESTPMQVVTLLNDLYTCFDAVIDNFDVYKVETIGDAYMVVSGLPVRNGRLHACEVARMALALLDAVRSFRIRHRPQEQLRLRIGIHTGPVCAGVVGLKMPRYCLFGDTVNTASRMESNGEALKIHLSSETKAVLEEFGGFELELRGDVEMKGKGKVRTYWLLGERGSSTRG
procedure_summary: cell-based or functional assay
Numbered stars: 1 amine (or outer) side, 2 acyl side, 3 side chain; on linkers, the order of the positions; unused ones are H or OH. Bridge positions count the residues as written; N and C are the ends. * marks the point of attachment. thioacetal = thioacetal linkage between two cysteines (intrachain bond at the bracketed Cys); C20 diacid = O=C(O)CCCCCCCCCCCCCCCCCCC(=O)*; γGlu = O=C(O)[C@H](CCC(=O)[*:2])N[*:1]

>  <binder>
SXRRSSCFGKRIDRIGHYSGLGCPSFRHGSGSPSSGAPPPSG (N-terminus acylated with HOOC-(CH2)18-CO-(γGlu)-; (AEEA)6 after EKEKEKG; 4Pal; thioacetal linkage between the two bracketed Cys; C-terminal amide) [HOOC-(CH2)18-CO-(γGlu)-EKEKEKG-(AEEA)6-S-4Pal-RRSS[CFGKRIDRIGHYSGLGC]PSFRHGSGSPSSGAPPPSG-NH2]

>  <output_unit>
pM

>  <cGMP Assay (EC50, pM) w/Casein, hNPRA>
922

$$$$
>  <binder>
{C20 diacid-γGlu}-EKEKEKGEKPRSSCFGKRIDRIGHQSGLGCPSFRHGSGSPSSGAPPPSG-NH2 (bridge 14-30 via thioacetal) [HOOC-(CH2)18-CO-(γGlu)-EKEKEKGEKPRSS[CFGKRIDRIGHQSGLGC]PSFRHGSGSPSSGAPPPSG-NH2]

>  <output_unit>
pM

>  <cGMP Assay (EC50, pM) w/Casein, hNPRA>
392

$$$$
>  <binder>
SXRRSSCFGKRIDRIGHQSGLGCPSFRHGGKSSGAPPPS (N-terminus acylated with HOOC-(CH2)18-CO-(γGlu)-; PEG24 after EKEKEKG; 4Pal; thioacetal linkage between the two bracketed Cys; C-terminal amide) [HOOC-(CH2)18-CO-(γGlu)-EKEKEKG-PEG24-S-4Pal-RRSS[CFGKRIDRIGHQSGLGC]PSFRHGGKSSGAPPPS-NH2]

>  <output_unit>
pM

>  <cGMP Assay (EC50, pM) w/Casein, hNPRA>
488

$$$$

Hey, just so you know, these numbers are from patent US20240174727A1.
